targetUnderTest: purified recombinant human HER2 protein (Homo sapiens (Human))
Sequence (P04626 23-1255): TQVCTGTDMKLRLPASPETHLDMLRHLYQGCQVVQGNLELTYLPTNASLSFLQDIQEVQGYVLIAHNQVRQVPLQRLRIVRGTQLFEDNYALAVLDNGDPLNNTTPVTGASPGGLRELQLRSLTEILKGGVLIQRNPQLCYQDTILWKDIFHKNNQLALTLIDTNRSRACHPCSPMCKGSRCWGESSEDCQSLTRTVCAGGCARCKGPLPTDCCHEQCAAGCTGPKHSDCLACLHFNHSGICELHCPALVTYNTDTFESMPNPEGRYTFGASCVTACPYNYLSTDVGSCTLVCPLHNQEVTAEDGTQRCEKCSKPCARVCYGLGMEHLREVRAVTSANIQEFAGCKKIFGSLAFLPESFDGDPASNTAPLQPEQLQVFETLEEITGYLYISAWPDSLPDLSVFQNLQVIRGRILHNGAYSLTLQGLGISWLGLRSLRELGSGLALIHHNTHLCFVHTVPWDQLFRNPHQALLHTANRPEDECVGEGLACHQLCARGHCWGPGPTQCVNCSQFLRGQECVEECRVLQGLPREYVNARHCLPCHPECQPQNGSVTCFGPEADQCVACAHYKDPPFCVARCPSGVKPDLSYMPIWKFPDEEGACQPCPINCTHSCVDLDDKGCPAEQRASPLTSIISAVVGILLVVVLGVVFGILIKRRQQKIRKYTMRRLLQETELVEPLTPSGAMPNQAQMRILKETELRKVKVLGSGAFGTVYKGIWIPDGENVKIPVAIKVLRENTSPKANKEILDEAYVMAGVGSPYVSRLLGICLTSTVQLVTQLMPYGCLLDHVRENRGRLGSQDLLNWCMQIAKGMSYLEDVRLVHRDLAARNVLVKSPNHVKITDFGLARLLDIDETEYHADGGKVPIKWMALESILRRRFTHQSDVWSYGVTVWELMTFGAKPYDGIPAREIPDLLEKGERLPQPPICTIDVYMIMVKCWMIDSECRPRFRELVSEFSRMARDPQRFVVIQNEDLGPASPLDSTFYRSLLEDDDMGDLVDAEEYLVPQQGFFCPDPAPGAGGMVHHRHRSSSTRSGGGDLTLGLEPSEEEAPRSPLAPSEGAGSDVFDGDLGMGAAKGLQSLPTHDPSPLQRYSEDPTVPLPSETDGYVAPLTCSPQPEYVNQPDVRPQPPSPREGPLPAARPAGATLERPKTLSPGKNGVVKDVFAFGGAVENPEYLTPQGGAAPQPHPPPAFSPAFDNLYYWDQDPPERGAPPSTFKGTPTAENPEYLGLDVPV
protocolText: Inhibitory effect on HER2-phosphorylating activity (in vitro)
Assay type: biochemical
statedConditions: ATP 6 uM, substrate peptide 0.5 uM, 25° C. for 40 minutes
quantity: IC50 (nM)

[A] C=CC(=O)N1CC(F)C[C@@H](n2nc(C(=O)Nc3ccc(CC(=O)N(C)C)c(C)c3C)c3c(N)ncnc32)C1 (stereo partly shown) [Example 77]
[B] C=CC(=O)N1CCC[C@@H](n2nc(C(=O)Nc3cc(C)c(CC(=O)N(C)C)cc3C)c3c(N)ncnc32)C1 [Example 39]
Query :: For the pair A and B , which member has the lower IC50 number? In your reply, give the label of the chosen option.
Result :: A

[P] C=CC(=O)N1CCC[C@@H](n2nc(C(=O)Nc3ccc(CC(=O)N(C)C)c(C)c3C)c3c(N)ncnc32)C1 [Example 13]
[Q] C=CC(=O)N1CCC[C@@H](n2nc(C(=O)Nc3ccc(CC(=O)N(C)C)cc3F)c3c(N)ncnc32)C1 [Example 25]
Query :: For the pair P and Q , which member has the lower IC50 number? In your reply, give the label of the chosen option.
Result :: P

[P] C=CC(=O)N1CCC[C@@H](n2nc(C(=O)Nc3ccc(CC(=O)N4CCCC4)cc3C)c3c(N)ncnc32)C1 [Example 71]
[Q] C=CC(=O)N1CCC[C@@H](n2nc(C(=O)Nc3ccc(NC(=O)N(C)C)cc3C)c3c(N)ncnc32)C1 [Example 74]
Query :: Select the item with the higher value of IC50 from the options P and Q listed. In your reply, give the label of the chosen option.
Result :: Q
(Q: 17 nM, P: 11 nM)

###

targetUnderTest: purified recombinant human HER2 protein (Homo sapiens (Human))
protocolText: Inhibitory effect on HER2-phosphorylating activity (in vitro)
statedConditions: ATP 6 uM, substrate peptide 0.5 uM, 25° C. for 40 minutes
Procedure: Next, the HER2 protein, the substrate peptide (final concentration: 0.5 uM), manganese chloride (final concentration: 10 mM), ATP (final concentration: 6 uM), and the solution of the compound of the present invention in DMSO (final concentration of DMSO: 5%) were added into a buffer solution for kinase reaction (15 mM Tris (pH 7.5), 2 mM dithiothreitol, and 0.01% Tween 20), and the mixture was incubated at 25° C. for 40 minutes for kinase reaction. […]
pIC50: −log10 of the molar value.
quantity: pIC50

In [3]: df
Out[3]:
                                   compound  reading
0  C=CC(=O)N1CC(F)C[C@@H](n2nc(C(=O)Nc3ccc(CC(=O)N(C)C)cc3Cl)c3c(N)ncnc32)C1 (stereo partly shown)     8.30

[A] C=CC(=O)N1CCC[C@@H](n2nc(C(=O)Nc3ccc(CC(=O)N4CC(O)C4)cc3C)c3c(N)ncnc32)C1
[B] C=CC(=O)N1CCC[C@@H](n2nc(C(=O)Nc3ccc(CC(=O)N(C)C)c4ccccc34)c3c(N)ncnc32)C1
Query :: Select the item with the higher value of pIC50 from the options A and B listed. In your reply, give the label of the chosen option.
Result :: B
